Just for reference, PubChem BioAssay (NCI) is where these values come from.

# System: A549 NSCLC
# ASSAY DETAILS: NCI tumour cell line growth inhibition, 48 h
PROPERTY LABEL: TGI (µM)

[[record]]
molecule = "O=[N+]([O-])c1cc([N+](=O)[O-])c(NN=C(c2ccc(O)cc2)c2ccc(O)cc2)cc1Cl"
uom = "µM"
censoring_qualifier = "="
meas_value = 6.59

[[record]]
molecule = "CC(=O)c1ccc(Nc2cc(-n3nnc4ccccc43)nc3ccccc23)cc1"
uom = "µM"
censoring_qualifier = ">"
meas_value = 100

[[record]]
molecule = "CCCCCCCCCCCCC(=O)CCCCC(=O)O"
uom = "µM"
censoring_qualifier = "="
meas_value = 44.6

[[record]]
molecule = "CCOC(=O)C1=C(C#N)S(=O)(=O)c2c(oc(C)c2C)N1"
uom = "µM"
censoring_qualifier = ">"
meas_value = 100

[[record]]
molecule = "CCCCCCCCCCCCCCCCOCC(Cl)CP(=O)(O)OP(=O)(O)OCC1OC(n2cnc3c(N)ncnc32)C(O)C1O (centres undefined)"
uom = "µM"
censoring_qualifier = ">"
meas_value = 100

[[record]]
molecule = "COc1cc(C=C2c3ccccc3C(=O)c3ccccc32)ccc1OCCCCOc1cc2c(cc1OC)C(=O)N1CCCC1C=N2 (centres undefined)"
uom = "µM"
censoring_qualifier = "="
meas_value = 3.22

[[record]]
molecule = "O=c1c(-c2ccccc2)c(SCCN2CCCC2)n(-c2ccccc2)c(=S)n1-c1ccccc1"
uom = "µM"
censoring_qualifier = ">"
meas_value = 100

[[record]]
molecule = "COc1cccc2c1C(=O)c1c(O)c3c(c(O)c1C2=O)C[C@@](O)(C(=O)CO)C[C@@H]3OC1CC(N(C)C)C(O)C(C)O1 (some centres undefined)"
uom = "µM"
censoring_qualifier = "="
meas_value = 0.785

[[record]]
molecule = "C=CC(O)(CBr)CCC(Br)C(C)(C)Cl (centres undefined)"
uom = "µM"
censoring_qualifier = ">"
meas_value = 10

